molecular target: Toll-like receptor 7 (Homo sapiens); test: Agonist activity at human TLR7 expressed in HEK293 cells after 6 hrs by NFkappaB-luciferase reporter gene assay; type: cell-based
Each record's class is read off its MEC using these ranges: lo = under 2 µM, mid = from 2 µM up to 6 µM, hi = 6 µM and over

CCCCNc1nc(N)nc2c1CN(C(=O)c1csc(N)n1)CC2	hi
CCCCNc1nc(N)nc2c1CN(C)CC2	hi
CCCCNc1nc(N)nc2c1CN(C(C)=O)CC2	mid
CCOCc1nc2c(N)nc3ccccc3c2n1CC(C)(C)O	lo
CCCC[C@@H](CCO)Nc1nc(N)nc2c1CN(C(=O)c1cccs1)CC2	lo
CCCCNc1nc(N)nc2c1CN(Cc1cccc(Cl)c1Cl)CC2	lo
CCCCNc1nc(N)nc2c1CCNC2	hi
CCCCNc1nc(N)nc2c1CN(C(=O)c1cc(C)on1)CC2	lo
CCCCNc1nc(N)nc2c1CNCC2	hi
CCCCNc1nc(N)nc2c1CN(C(=O)c1scnc1C)CC2	hi
CCCCNc1nc(N)nc2c1CN(C(=O)c1cscn1)CC2	lo
CCCCNc1nc(N)nc2c1CN(Cc1ccccn1)CC2	mid
CCCCNc1nc(N)nc2c1CN(Cc1cccc3ccccc13)CC2	lo
CCCCNc1nc(N)nc2c1CN(Cc1c(Cl)cccc1Cl)CC2	mid
CCCCNc1nc(N)nc2c1CN(C(=O)c1cnc(C)cn1)CC2	hi
CCCCNc1nc(N)nc2c1CN(C(=O)c1cnc(N)s1)CC2	mid
CCCCNc1nc(N)nc2c1CN(Cc1ccc(OC(F)(F)F)cc1)CC2	mid
CCC[C@@H](CCO)Nc1nc(N)nc2c1CN(C(=O)c1cccs1)CC2	lo
CCCCNc1nc(N)nc2c1CN(C(=O)c1ccncc1)CC2	hi
CCCCNc1nc(N)nc2c1CN(Cc1ccc(-c3ccccc3)cc1)CC2	hi
CCCCNc1nc(N)nc2c1CN(C(=O)CC)CC2	mid
CCCCNc1nc(N)nc2c1CN(C(=O)c1ccccn1)CC2	hi
CCCCNc1nc(N)nc2c1CCN(CCc1ccccc1)C2	hi
CCCCNc1nc(N)nc2c1CN(Cc1cccnc1)CC2	mid
